B1: Syntaxin-binding protein 4, residues 493 to 538; numbered along this chain, Q6ZWJ1 (parent)
chain: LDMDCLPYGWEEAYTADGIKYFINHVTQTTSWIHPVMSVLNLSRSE

Variants of: B1
Assay: abundance fitness (aPCA) (normalised: wild type 0, dead -1); higher = more abundant; growth selection in yeast, the domain comes from the species named
Settings: Homo sapiens
Output Met for abundance fitness not less than -0.5; output Not met otherwise.

Here's what some known entries look like.
   mutant_code    group
0         T29I      Met
1         S45H      Met
2         V36I  Not met
3         I33A      Met
4         T27Q      Met

Prompt: Assess whether reported abundance fitness for `I33P` sits at -0.5 or higher.
Response: Not met

Prompt: Assess whether reported abundance fitness for `A16H` sits at -0.5 or higher.
Response: Met

Prompt: Assess whether reported abundance fitness for `S43P` sits at -0.5 or higher.
Response: Met

Prompt: Assess whether reported abundance fitness for `G18C` sits at -0.5 or higher.
Response: Not met

Prompt: Assess whether reported abundance fitness for `P7F` sits at -0.5 or higher.
Response: Not met

Prompt: Assess whether reported abundance fitness for `E11D` sits at -0.5 or higher.
Response: Not met

Prompt: Assess whether reported abundance fitness for `R44D` sits at -0.5 or higher.
Response: Met
